Entries and their CVS-11 neutralizing antibody titer (RFFIT), nM IC50
# Tested Target: Rabies virus glycoprotein G, Challenge Virus Standard (CVS)-11 strain (Rabies virus, strain CVS-11 (genotype 1 Lyssavirus)) (UniProt O92284)
# Sequence (O92284 20-524 limits assumed): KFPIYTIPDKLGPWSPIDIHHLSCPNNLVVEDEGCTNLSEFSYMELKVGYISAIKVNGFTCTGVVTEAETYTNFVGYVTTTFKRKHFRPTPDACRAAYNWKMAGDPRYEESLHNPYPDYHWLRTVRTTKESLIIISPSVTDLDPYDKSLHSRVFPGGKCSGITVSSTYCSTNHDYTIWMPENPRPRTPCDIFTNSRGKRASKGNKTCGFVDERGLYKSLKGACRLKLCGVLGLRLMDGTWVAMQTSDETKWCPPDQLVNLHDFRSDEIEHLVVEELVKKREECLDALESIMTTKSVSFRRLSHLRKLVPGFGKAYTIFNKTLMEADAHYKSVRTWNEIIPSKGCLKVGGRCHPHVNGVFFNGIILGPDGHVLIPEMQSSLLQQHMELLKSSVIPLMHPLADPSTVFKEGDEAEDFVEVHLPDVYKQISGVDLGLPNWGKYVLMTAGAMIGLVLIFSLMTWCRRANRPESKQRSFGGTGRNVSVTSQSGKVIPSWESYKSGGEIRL
# Run Description: cell-based or functional assay
The figure you give is taken to be in nM; do not add the unit.

Examples with answers:
LG214E8 (VHH) VHH: EVQLVESGGGSVQAGGSLRLSCAASGGTFNPYVMAWFRQAPGNEREFVARIRWSGGDAYYDDSVKGRFAITRDAAKNTVHLQMNSLKPEDTAVYYCAAATYGYGSYTYGGSYDLWGQGTQVTVSS = 249
LG213B7 (VHH) VHH: EVQLVESGGGLVQAGGSLRLSCTVSGDTFDNSAAGWYRATSETQRELVARIRSSGSTNYADSVKGRFTVSRDNAKNTVYLQMNSLKPEDTAVYYCNVVSYGEYFWGKGTLVTVSS = 316
LG214H10 (VHH) VHH: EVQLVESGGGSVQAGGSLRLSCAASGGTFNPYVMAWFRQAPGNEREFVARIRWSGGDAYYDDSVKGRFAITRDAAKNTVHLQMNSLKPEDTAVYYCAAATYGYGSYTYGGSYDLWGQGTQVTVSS = 284
LG212B12 (VHH) VHH: EVQLVESGGGLVQPGGSLRLSCAASGFTFGNYDMSWVRQAPGKGPEWVSGINTGGSTLYADSVKGRFTISRDNAKNTLYLQMNSLKSEDTAVYYCAKDLYGSTWYTDYWSQGTQVTVSS = 101

In the following, a different binder is considered.
Prompt: Please supply the value of reported CVS-11 neutralizing antibody titer (RFFIT), nM IC50 for the item LG212A2 (VHH) VHH: EVQLVESGGGLVQAGGSLRLSCAASGRTFDTYFVGWFRQAPGKERDFVAAISWSGDRTFYADSVKGRFTISRDNAKNTEYLQMNSLKPEDTAVYYCAAREYGRLYSDSEAYDYWGQGTQVTVSS
Completion: 1340
